The reported measurements were obtained from paper PMC6152131.

- TEST_DESCRIPTION: Stability of flavonoids and biotransformation products in mouse plasma under different handling conditions
- Format: in vitro ADME, mice
- EXPERIMENTAL_CONDITIONS: room temperature (25 °C), 0 h; medium nominal conc. (rutin 3.50; quercetin glucoside, quercitrin, tiliroside 22.18; kaempferol 2.24; m-HPAA, p-HPAA, DOPAC 7.81 µg/mL); n = 6
REPORTED_METRIC: Observed Conc. 0 h

COMPOUND | Observed Conc. 0 h
O=C(O)Cc1cccc(O)c1 [m-HPAA, meta-hydroxyphenylacetic acid] | 7.80 ± 0.01 µg/mL

**Q:** Look up and report measured Observed Conc. 0 h for this entry: O=C(O)Cc1ccc(O)c(O)c1 [DOPAC, 3,4-dihydroxyphenylacetic acid]
**A:** 7.85 ± 0.032 µg/mL

**Q:** Look up and report measured Observed Conc. 0 h for this entry: `O=c1c(O)c(-c2ccc(O)cc2)oc2cc(O)cc(O)c12`
**A:** 2.24 ± 0.20 µg/mL

**Q:** Look up and report measured Observed Conc. 0 h for this entry: `C[C@@H]1O[C@@H](Oc2c(-c3ccc(O)c(O)c3)oc3cc(O)cc(O)c3c2=O)[C@H](O)[C@H](O)[C@H]1O`
**A:** 22.94 ± 1.87 µg/mL

**Q:** Look up and report measured Observed Conc. 0 h for this entry: O=C(/C=C/c1ccc(O)cc1)OC[C@H]1O[C@@H](Oc2c(-c3ccc(O)cc3)oc3cc(O)cc(O)c3c2=O)[C@H](O)[C@@H](O)[C@@H]1O [Tiliroside, tiliroside]
**A:** 21.44 ± 2.13 µg/mL

**Q:** Look up and report measured Observed Conc. 0 h for this entry: O=c1c(O[C@@H]2O[C@H](CO)[C@@H](O)[C@H](O)[C@H]2O)c(-c2ccc(O)c(O)c2)oc2cc(O)cc(O)c12 [Quercetin glucoside, quercetin glucoside]
**A:** 20.86 ± 1.35 µg/mL

**Q:** Look up and report measured Observed Conc. 0 h for this entry: O=C(O)Cc1ccc(O)cc1 [p-HPAA, para-hydroxyphenylacetic acid]
**A:** 7.86 ± 0.11 µg/mL
